test system: primary human hepatic stellate cells (donor 1); assay: scaled lipid accumulation score (0 = DMSO-like, 1 = nortriptyline-like); higher = stronger HSC inactivation (lipid re-accumulation), active = hit call of the paper; conditions: library stock concentration: 10 mM; 48 h
The campaign covered roughly 5,800 compounds. About 620 (11%) showed activity.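 How the source made its calls: active = score above a cut-off or among the top three wells of a plate; in these data no inactive exceeds 0.85.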 This is one part of a sample in which actives are shown more often than they occur.
The reply should name one outcome from true (1) (active), false (0) (inactive)

Known results for molecules:
# Molecule, Class Assignment
data = [
    ("CC(=O)N[C@@H](CCC(=O)O)C(=O)O", "false (0)"),
    ("CCCCCCCCCCCCCCCC(=O)O[C@H](CC(=O)O)C[N+](C)(C)C", "false (0)"),
]

[ask] Could you please tell me the result logged for CC1=C(C(=O)OC2CCCCC2)C(c2ccc([N+](=O)[O-])cc2)C2=C(CC(C)(C)CC2=O)N1 (stereo not drawn) in this assay?
[reply] true (1)

[ask] Could you please tell me the result logged for `C/C=C1\[C@H]2C=C(C)C[C@]1(N)c1ccc(=O)[nH]c1C2` in this assay?
[reply] false (0)

[ask] Could you please tell me the result logged for `CCN1CCN(Cc2ccc(Nc3ncc(F)c(-c4cc(F)c5nc(C)n(C(C)C)c5c4)n3)nc2)CC1.CS(=O)(=O)O` in this assay?
[reply] true (1)

[ask] Could you please tell me the result logged for `CC1(C)S[C@@H]2[C@H](NC(=O)[C@H](N)c3ccc(O)cc3)C(=O)N2[C@H]1C(=O)O` in this assay?
[reply] false (0)

[ask] Could you please tell me the result logged for `C[C@H]1O[C@@H](O[C@H]2[C@@H](O)C[C@H](O[C@H]3[C@@H](O)C[C@H](O[C@H]4CC[C@@]5(C)[C@H](CC[C@@H]6[C@@H]5C[C@@H](O)[C@]5(C)[C@@H](C7=CC(=O)OC7)CC[C@]65O)C4)O[C@@H]3C)O[C@@H]2C)C[C@H](O)[C@@H]1O` in this assay?
[reply] false (0)

[ask] Could you please tell me the result logged for CC(=O)N(CC(O)CO)c1c(I)c(C(=O)NCCO)c(I)c(C(=O)NCC(O)CO)c1I (stereo not drawn) in this assay?
[reply] false (0)

====

tested on: primary human hepatic stellate cells (donor 1); assay: scaled lipid accumulation score (0 = DMSO-like, 1 = nortriptyline-like); higher = stronger HSC inactivation (lipid re-accumulation), active = hit call of the paper; conditions: library stock concentration: 3.33 mM; 48 h
Structures can show the parent of a compound that is named as a salt. The whole screen tested about 5,800 compounds, of which about 620 (11%) showed activity. This excerpt belongs to a sample that is enriched for actives.
Exercise: state measured scaled lipid accumulation score for each of the molecules provided.

# Molecule, scaled lipid accumulation score
data = [
    ("O=C(O)c1ccc(N2C(=O)C(=Cc3ccc(-c4ccc([N+](=O)[O-])cc4)o3)C=C2c2ccccc2)cc1", "0.129 (inactive)"),
    ("C=C[C@]1(C)C[C@@H](OC(=O)CSC(C)(C)CNC(=O)[C@H](N)C(C)C)[C@]2(C)[C@H](C)CC[C@]3(CCC(=O)[C@H]32)[C@@H](C)[C@@H]1O [Valnemulin HCl]", "≤ 0 (inactive)"),
    ("CC(C)(O)CC(=O)NCCn1ccc2ncnc(Nc3ccc(Oc4cccc(C(F)(F)F)c4)c(Cl)c3)c21", "≤ 0 (inactive)"),
]

Kindly consider the entry below.
scaled lipid accumulation score recorded for this molecule, `C[C@@H]1COC(Nc2ccc3ncnc(Nc4ccc(OCc5nccs5)c(Cl)c4)c3c2)=N1` , is 0.382 (inactive)

====

test system: primary human hepatic stellate cells (donor 1); test: scaled lipid accumulation score (0 = DMSO-like, 1 = nortriptyline-like); higher = stronger HSC inactivation (lipid re-accumulation), active = hit call of the paper; settings: library stock concentration: 400 uM; 48 h
Screen size: about 5,800 compounds; about 620 (11%) showed activity. The sample holds actives, similar compounds and a random draw of the others, so the mix is not that of the screen.
Reported Property: scaled lipid accumulation score

The examples below pair each entry with its known result.
# Molecule, Value Reported
measured = [
    ("COc1cc(Nc2ncc(F)c(Nc3ccc4c(n3)NC(=O)C(C)(C)O4)n2)cc(OC)c1OC", "0.072 (inactive)"),
    ("C=CC(=O)Nc1cccc(Nc2nc(NC3CCC(N(C)C)CC3)nc3c2ncn3C(C)C)c1 (stereo unspecified)", "≤ 0 (inactive)"),
    ("Cc1cc(C=C2C(=O)C=CC2=O)cc(C)c1O", "≤ -0.001 (inactive)"),
    ("Cc1[nH]c(/C=C2\\C(=O)Nc3ccccc32)c(C)c1CCC(=O)O [SU-6668 (TSU-68, Orantinib) (0.4 mM)]", "0.175 (inactive)"),
    ("COc1cc2nc(N3CCCN(C)CC3)nc(NC3CCN(Cc4ccccc4)CC3)c2cc1OC", "≤ 0 (inactive)"),
    ("C=CC(=O)Nc1cccc(Oc2nc(Nc3ccc(N4CCN(C)CC4)cc3OC)ncc2Cl)c1", "≤ 0 (inactive)"),
    ("COc1cc2c(NC3CCN(C(C)C)CC3)nc(C3CCCCC3)nc2cc1OCCCN1CCCC1", "≤ 0 (inactive)"),
    ("CCC(=O)Nc1cccc(Oc2nc(Nc3ccc(N4CCN(C)CC4)cc3OC)ncc2Cl)c1", "≤ -0.001 (inactive)"),
]

Give scaled lipid accumulation score for each listed item.
1. CC1CCN(c2cc(N3CCN(C)CC3)ccc2NC(=O)c2cc(C#N)c[nH]2)CC1
2. CCN(CC)CCNC(=O)c1c(C)[nH]c(/C=C2\C(=O)Nc3ccc(F)cc32)c1C
3. COc1cc(C(=O)NC2CCN(C)CC2)ccc1Nc1ncc2c(n1)N(C1CCCC1)C(C)CC(=O)N2C (stereo unspecified)
4. CC[C@@H]1C(=O)N(C)c2cnc(Nc3ccc(C(=O)NC4CCN(C)CC4)cc3OC)nc2N1C1CCCC1
5. Cc1cnc(Nc2ccc(F)cc2Cl)nc1-c1c[nH]c(C(=O)N[C@H](CO)c2cccc(Cl)c2)c1
6. CC[C@@H]1C(=O)N(C)c2cnc(Nc3ccc(C(=O)N[C@H]4CC[C@H](N5CCN(CC6CC6)CC5)CC4)cc3OC)nc2N1C(C)C
7. CCN1CCC(n2cc(CNc3cc(Cl)c4ncc(C#N)c(Nc5ccc(F)c(Cl)c5)c4c3)nn2)CC1
8. COc1cc(N2CCC(N3CCN(C)CC3)CC2)ccc1Nc1ncc(Cl)c(Nc2ccccc2S(=O)(=O)C(C)C)n1

[reply]
1. ≤ -0.016 (inactive)
2. 0.189 (inactive)
3. ≤ 0 (inactive)
4. 1.02 (active)
5. ≤ -0.001 (inactive)
6. 0.358 (inactive)
7. ≤ -0.009 (inactive)
8. 0.087 (inactive)

====

test system: primary human hepatic stellate cells (donor 1); assay: scaled lipid accumulation score (0 = DMSO-like, 1 = nortriptyline-like); higher = stronger HSC inactivation (lipid re-accumulation), active = hit call of the paper; details: library stock concentration: 10 mM; 48 h
Structures can show the parent of a compound that is named as a salt. Screen size: about 5,800 compounds; about 620 (11%) showed activity.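 The calls were made as follows: active = score above a cut-off or among the top three wells of a plate; in these data no inactive exceeds 0.85.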 For the sample, actives were picked, then their nearest neighbours and some compounds at random.
The reply should name one outcome from true (1) for active, false (0) for inactive

Known results for molecules:
# Molecule, Class Assignment
records = [
    ("COC(=O)C(Cc1ccc(OCCn2c(=O)sc3cc(C(=O)c4ccccc4)ccc32)cc1)C(=O)OC", "false (0)"),
    ("CC[C@@]1(O)C(=O)OCc2c1cc1n(c2=O)Cc2cc3c(CN(C)C)c(O)ccc3nc2-1", "false (0)"),
    ("CNCCCC12CCC(c3ccccc31)c1ccccc12.Cl [Maprotiline hydrochloride]", "true (1)"),
    ("O=C(NC1CCOCC1)c1ccc(-c2cc(-c3c[nH]nc3-c3ccccn3)ccn2)cc1", "false (0)"),
    ("C[N+](C)(C)CCOP(=O)(O)OP(=O)([O-])OC[C@H]1O[C@@H](n2ccc(N)nc2=O)[C@H](O)[C@@H]1O [Cytidine 5'-diphosphocholine sodium salt hydrate]", "false (0)"),
    ("COc1ccc(C2=N[C@@H](c3ccc(Cl)cc3)[C@@H](c3ccc(Cl)cc3)N2C(=O)N2CCNC(=O)C2)c(OC(C)C)c1", "false (0)"),
    ("CCc1c2c(nc3ccc(OC(=O)N4CCC(N5CCCCC5)CC4)cc13)-c1cc3c(c(=O)n1C2)COC(=O)[C@]3(O)CC", "false (0)"),
    ("CCc1c2c(nc3ccc(OC(=O)N4CCC(N5CCCCC5)CC4)cc13)-c1cc3c(c(=O)n1C2)COC(=O)[C@]3(O)CC [Irinotecan]", "false (0)"),
]

[ask] Could you please tell me the result logged for `COc1ccc(-c2cc(=O)c3c(O)cc(O)cc3o2)cc1` in this assay?
[reply] false (0)

[ask] Could you please tell me the result logged for CNCCCC12CCC(c3ccccc31)c1ccccc12.Cl [Maprotiline HCl] in this assay?
[reply] true (1)

[ask] Could you please tell me the result logged for `COc1ccccc1N1CCN(CCCCNC(=O)c2ccc(-c3ccc(C(C)=O)cc3)cc2)CC1` in this assay?
[reply] true (1)

[ask] Could you please tell me the result logged for COc1ccc(C2CC(=O)c3c(O)cc(OC4OC(COC5OC(C)C(O)C(O)C5O)C(O)C(O)C4O)cc3O2)cc1OC (configuration not stated) in this assay?
[reply] false (0)

[ask] Could you please tell me the result logged for `COc1ccccc1N1CCN(CCCNc2cc(=O)n(C)c(=O)n2C)CC1` in this assay?
[reply] false (0)

[ask] Could you please tell me the result logged for `Cc1cn(-c2cc(NC(=O)c3ccc(C)c(Nc4nccc(-c5cccnc5)n4)c3)cc(C(F)(F)F)c2)cn1` in this assay?
[reply] false (0)

[ask] Could you please tell me the result logged for `Cc1ccccc1N=Nc1ccc(NC(=O)c2ccnn2C)c(C)c1` in this assay?
[reply] false (0)

[ask] Could you please tell me the result logged for `COc1ccccc1N1CCN(CCCCNC(=O)c2ccc3ccccc3c2)CC1` in this assay?
[reply] true (1)

[ask] Could you please tell me the result logged for `Cc1cc([N+](=O)[O-])ccc1NS(=O)(=O)c1cc(Cl)ccc1Cl` in this assay?
[reply] false (0)
